targetUnderTest: HLA-A*02:16
assaySummary: IEDB peptide-MHC binding, purified MHC/direct/fluorescence; filed as Kd, often an IC50 or EC50 that approximates it; bounds were set here for any values at or beyond the usual limits of such assays
appliedConditions: source organism: Zaire ebolavirus
reportedProperty: Kd

>>> result("ILNRKAIDF")
"≥ 20 µM"

Proceed to the following item.
System HLA-A*02:16. Read-out Kd. Item `LESLTDREL` . Report value.
≥ 20 µM

---

targetUnderTest: HLA-B*39:01
assaySummary: IEDB peptide-MHC binding, purified MHC/competitive/fluorescence; filed as Kd, often an IC50 or EC50 that approximates it; bounds were set here for any values at or beyond the usual limits of such assays
appliedConditions: source organism: Vibrio parahaemolyticus RIMD 2210633
reportedProperty: Kd

Report Kd on HLA-B*39:01 for this entry: `SMNYPNSYK`
≥ 20 µM
